Test system: AGS cells (KRAS G12D)
TEST DETAILS: Cell viability assay (Cell Counting Kit-8, 3-day)
Type: cell-based, human
MEASUREMENT SETUP: Homo sapiens, 72 h, 72 hrs incubation
Measured IC50, listed per entry.
Give the number; nM is assumed, so skip it.

Here are 5 compounds together with their reported answers.
CO[C@@H](C)c1ncc(N2CCOCC2)cc1-c1c2c3cc(cc4c3n1CCO4)-c1csc(n1)C[C@H](NC(=O)[C@H]1C[C@@H]1C(F)F)C(=O)N1CCC[C@H](N1)C(=O)OCC(C)(C)C2 (atropisomer, axis not shown; (M))	7.6
CO[C@@H](C)c1ncc(N2CCOCC2)cc1-c1c2c3cc(cc4c3n1CCC4)-c1csc(n1)C[C@H](NC(=O)[C@H]1[C@@H]3COC[C@@H]31)C(=O)N1CCC[C@H](N1)C(=O)OCC(C)(C)C2 (atropisomer, axis not shown; (M))	13.1
CO[C@@H](C)c1ncc(N2CCN(C)CC2)cc1-c1c2c3cc(cc4c3n1CCC4)-c1csc(n1)C[C@H](NC(=O)[C@H]1C[C@@H]1c1ccncc1)C(=O)N1CCC[C@H](N1)C(=O)OCC(C)(C)C2	27.6
CO[C@@H](C)c1ncc(N2CCN(C)CC2)cc1-c1c2c3cc(cc4c3n1CCCCC4)-c1csc(n1)C[C@H](NC(=O)[C@H]1[C@H](C)[C@@H]1C)C(=O)N1CCC[C@H](N1)C(=O)OCC(C)(C)C2	1000
CO[C@@H](C)c1ncc(N2CCN(C)CC2)cc1-c1c2c3cc(cc4c3n1CCC4)-c1csc(n1)C[C@H](NC(=O)[C@H]1C[C@@H]1c1cnccn1)C(=O)N1CCC[C@H](N1)C(=O)OCC(C)(C)C2 (atropisomer, axis not shown; (M))	7.8

For the compound shown here, CO[C@@H](C)c1ncc(N2CCN(C3CCOCC3)CC2)cc1-c1c2c3cc(cc4c3n1CCC4)-c1csc(n1)C[C@H](NC(=O)[C@H]1[C@H](C)[C@@H]1C)C(=O)N1CCC[C@H](N1)C(=O)OCC(C)(C)C2 (atropisomer, axis not shown; (M)) , give the reported IC50.
2.5

For the compound shown here, CO[C@@H](C)c1ncc(N2CCOCC2)cc1-c1c2c3cc(cc4c3n1CCO4)-c1csc(n1)C[C@H](NC(=O)[C@H]1[C@@H]3COC[C@@H]31)C(=O)N1CCC[C@H](N1)C(=O)OCC(C)(C)C2 (atropisomer, axis not shown; (M)) , give the reported IC50.
4.6

For the compound shown here, CO[C@@H](C)c1ncc(N2CCN(C)CC2)cc1-c1c2c3cc(cc4c3n1CCC4)-c1csc(n1)C[C@H](NC(=O)[C@H]1[C@@H]3COC[C@@H]31)C(=O)N1CCC[C@H](N1)C(=O)OCC(C)(C)C2 (atropisomer, axis not shown; (M)) , give the reported IC50.
15.9

For the compound shown here, CO[C@@H](C)c1ncc(N2CCN(C)CC2)cc1-c1c2c3cc(cc4c3n1CCC4)-c1csc(n1)C[C@H](NC(=O)[C@H]1[C@@H]3CC(F)(F)C[C@@H]31)C(=O)N1CCC[C@H](N1)C(=O)OCC(C)(C)C2 (atropisomer, axis not shown; (M)) , give the reported IC50.
26.5

The reported numbers originate from patent US20240417410A1.
